Can you tell me CC50 for the items I'm about to list?
Assay: MTT cytotoxicity assay on Vero cells
Type: cell-based
Details: MTT, calculated after 2 h of peptide treatment
Where a SMILES comes first, the peptide text is derived from it. [ ]: non-standard residue; d: D form. The star is where a group is joined. Tridecanoyl = CCCCCCCCCCCCC(=O)*; Nle = CCCC[C@H](N)C(=O)O

The reported value for CC[C@H](C)[C@H](NC(=O)[C@H](CCCNC(=N)N)NC(=O)[C@@H]1CCCN1C(=O)[C@@H](CC(C)C)NC(=O)[C@H](Cc1ccccc1)NC(=O)[C@H](CCCCN)NC(=O)[C@H](CO)NC(=O)[C@H](Cc1ccccc1)NC(=O)[C@H](Cc1c[nH]c2ccccc12)NC(=O)[C@@H]1CCCN1C(=O)[C@@H](NC(=O)[C@@H](N)Cc1ccccc1)C(C)C)C(=O)N[C@@H](CC(C)C)C(N)=O [TL2] (H-FVPWFSKF[dL]PRIL-NH2) in terms of CC50 is 56.5 µM

The reported value for CCCCCCCCCCCCC(=O)N[C@@H](Cc1ccccc1)C(=O)N[C@H](C(=O)N1CCC[C@H]1C(=O)N[C@@H](Cc1c[nH]c2ccccc12)C(=O)N[C@@H](Cc1ccccc1)C(=O)N[C@@H](CO)C(=O)N[C@@H](CCCCN)C(=O)N[C@@H](Cc1ccccc1)C(=O)N[C@H](CC(C)C)C(=O)N[C@@H](CCCC)C(=O)N[C@@H](CCCNC(=N)N)C(=O)N[C@H](C(=O)N[C@@H](CC(C)C)C(N)=O)[C@@H](C)CC)C(C)C [TL6.6] (Tridecanoyl-FVPWFSKF[dL][Nle]RIL-NH2) in terms of CC50 is > 100 µM

The reported value for CC[C@H](C)[C@H](NC(=O)[C@H](CCCNC(=N)N)NC(=O)CNC(=O)[C@@H](CC(C)C)NC(=O)[C@H](Cc1ccccc1)NC(=O)[C@H](CCCCN)NC(=O)[C@H](CO)NC(=O)[C@H](Cc1ccccc1)NC(=O)[C@H](Cc1c[nH]c2ccccc12)NC(=O)[C@@H]1CCCN1C(=O)[C@@H](NC(=O)[C@@H](N)Cc1ccccc1)C(C)C)C(=O)N[C@@H](CC(C)C)C(N)=O [TL1] (H-FVPWFSKF[dL]GRIL-NH2) in terms of CC50 is 42.2 µM
